- Test system: Malme-3M
- test name: NCI tumour cell line growth inhibition, 48 h
Active and inactive are the calls of the source. Rule as the data show it: active = GI50 up to about 1.1 µM and inactive = higher. Non-standard residues stand in square brackets, D forms with d. Residues, ends and D or L forms follow the SMILES beside them. β3hI = CC[CH](C)[CH](N)CC(=O)O
Outcome codes: active, inactive

>  <compound>
CC(C)=CCC[C@@H](C)c1c2ncc[nH]c-2c(C)c(=O)c1O

>  <cat>
inactive

$$$$
>  <compound>
CC(C)(C)c1cc(Cc2ccc([N+](C)(C)C)cc2)c(O)c(C(C)(C)C)c1

>  <cat>
inactive

$$$$
>  <compound>
Cc1ccc2c(=O)c3c(O)c4c(cc3n(C)c2c1)OC(C)(C)C=C4

>  <cat>
inactive

$$$$
>  <compound>
CC1(C)N=C(N)N=C(N)N1c1ccc(OCCCOc2ccccc2)c(Cl)c1

>  <cat>
active

$$$$
>  <compound>
c1ccc2c(c1)Sc1ccccc1N2C1CN2CCC1CC2 (stereo not given)

>  <cat>
inactive

$$$$
>  <compound>
COC1=C(Br)[C@H](O)[C@@]2(C=C1Br)CC(C(=O)NCCCCCNC(=N)N)=NO2

>  <cat>
inactive

$$$$
>  <compound>
Cn1cc(C[C@@H](N)C(=O)O)c2ccccc21

>  <cat>
inactive

$$$$
>  <compound>
O=CN/C=C/c1cccc(O)c1

>  <cat>
inactive

$$$$
>  <compound>
CCOc1ccc(/N=C/c2cccc3cccnc23)cc1

>  <cat>
inactive

$$$$
>  <compound>
O=c1[nH]nc(-c2ccccc2)n1/N=C/c1ccc([N+](=O)[O-])cc1

>  <cat>
inactive

$$$$
>  <compound>
CSc1nc(-c2ccccc2)nc(N2CCOCC2)[s+]1

>  <cat>
inactive

$$$$
>  <compound>
Cc1cc(NCCCCCCCNc2cc(C)nc3cc(N)ccc23)c2ccc(N)cc2n1

>  <cat>
inactive

$$$$
>  <compound>
CC(=O)N1C/C(=C\c2ccc(N(C)C)cc2)C(=O)/C(=C/c2ccc(N(C)C)cc2)C1

>  <cat>
inactive

$$$$
>  <compound>
N#C/C(=C\c1cc2ccccc2c2ccccc12)c1ccccc1

>  <cat>
inactive

$$$$
>  <compound>
CC(C)NC(=O)OCc1c(COC(=O)NC(C)C)c(-c2cc[n+](COC(=O)C(C)C)cc2)n2c1CCC2

>  <cat>
inactive

$$$$
>  <compound>
CNC(=S)OCCC(C)CCCC(C)C (stereo not given)

>  <cat>
inactive

$$$$
>  <compound>
O=C(c1ccccc1)n1cc(-c2ccccc2)c2c(=O)nc[nH]c21

>  <cat>
inactive

$$$$
>  <compound>
CC1(C)OC(COCCOCCCCCO)C(COCCOCCCCCO)O1 (stereo not given)

>  <cat>
inactive

$$$$
>  <compound>
Cc1cc(C)c(N)c(C)c1N

>  <cat>
inactive

$$$$
>  <compound>
CC(C)=CCC[C@@H](C)C1=C(O)C(O)C(C)=C2N=C(c3ccccc3)C(=O)OC21 (stereo not given in full)

>  <cat>
inactive

$$$$
>  <compound>
CCc1cccc(CC)c1Nc1nc2c(s1)C(=O)c1ccccc1C2=O

>  <cat>
inactive

$$$$
>  <compound>
CC(C)N/C(=N\C#N)NS(=O)(=O)c1cnccc1NC1CCCCCCC1

>  <cat>
inactive

$$$$
>  <compound>
Cc1cccc2[n+]1[C@H]1[C@H]([C@@H]3O[C@H]1c1ccccc13)[S+]([O-])N2 (stereo not given in full)

>  <cat>
inactive

$$$$
>  <compound>
COC(=O)c1ccc(C(=O)OC)c2nc3cc(C)ccc3nc12

>  <cat>
inactive

$$$$
>  <compound>
O=C(O)c1cc(-c2ccc(-c3ccccc3)cc2)nc2cc3ccccc3cc12

>  <cat>
inactive

$$$$
>  <compound>
CCC(C)C(CC(=O)N1CCCC1C(=O)NC(C(=O)NC(C(=O)NCC(=O)NC(CC(N)=O)C(=O)NC(C(=O)NC(C(=O)NC(CCCCN)C(N)=O)C(C)CC)C(C)CC)C(C)C)C(C)CC)NC(=O)C(N)C(C)CC (stereo not drawn) (H-I[β3hI]PIVGNIIK-NH2; configuration not given here)

>  <cat>
inactive

$$$$
>  <compound>
CCOC(=O)c1c2c(n(-c3ccc(C)cc3)c1C)-c1ccccc1C(=O)C2(C(=O)OCC)C(=O)OCC

>  <cat>
inactive

$$$$
>  <compound>
CC(=O)CC1(O)C(=O)c2c(Br)sc(Br)c2C1=O

>  <cat>
inactive

$$$$
>  <compound>
CCOC(=O)c1c(N=P(c2ccccc2)(c2ccccc2)c2ccccc2)nnc(-c2ccccc2)c1-c1ccccc1

>  <cat>
inactive

$$$$
>  <compound>
COc1ccc(C2=C(Cl)c3cc(OC)c(OC)cc3C2OC)cc1OC (stereo not given)

>  <cat>
inactive

$$$$
>  <compound>
Nc1ccc(C(=O)N/C(=C\c2cccc([N+](=O)[O-])c2)c2nc3cc(Cl)ccc3[nH]2)cc1

>  <cat>
inactive

$$$$
>  <compound>
O=c1oc2c(Br)c(O)c(Br)cc2c2ccccc12

>  <cat>
inactive

$$$$
>  <compound>
COc1ccc([C@@H]2OC(=O)C3C2C(=O)O[C@H]3c2ccc(OC)c(OC)c2)cc1OC (stereo not given in full)

>  <cat>
inactive

$$$$
>  <compound>
O=[N+]([O-])c1cc(Cl)cc2cc(Cl)cnc12

>  <cat>
inactive

$$$$
>  <compound>
Cc1cc(NC(=O)NC(=O)c2ccccc2N(C)C)ccc1Oc1ncc(Br)cn1

>  <cat>
active

$$$$
>  <compound>
CN(C)c1ccc(N2C(=S)SC(=N\c3ccccc3)/C2=N/c2ccccc2)cc1

>  <cat>
inactive

$$$$
>  <compound>
COC(=O)CCC(NC(=S)N/N=C(\C)c1ccc[nH]1)C(=O)OC (stereo not given)

>  <cat>
inactive

$$$$
>  <compound>
CC(=O)/C=N/CC(=O)O

>  <cat>
inactive

$$$$
>  <compound>
CC(=O)OC1(C#N)CC2OC1C1C2N1C(=O)c1ccccc1 (stereo not given)

>  <cat>
inactive

$$$$
>  <compound>
Nc1nc2c(ncn2C2OC(CO)C(O)C2N)c(=O)[nH]1 (stereo not given)

>  <cat>
inactive

$$$$
